Tested on: Fibroblast
procedureDetails: Multiplex assay against human fibroblast
Type: toxicity, cell-based
condition: 48 h, 1 µM, compound concentration 1 uM, replicate 2
assayMetric: Population Normal (%)
Response body: numeric value in %, unit text excluded.

So, "CC(C)N1CCC(C)(C)c2cc(C#Cc3ccc(C(=O)O)cc3)ccc21" ? Its Population Normal (%) was 64

So, "Cl.Cl.Nc1ncnc2c1c(-c1cccc(OCc3ccccc3)c1)cn2[C@H]1C[C@@H](CN2CCC2)C1" ? Its Population Normal (%) was 77

So, CCn1c(-c2nonc2N)nc2cnc(Oc3cccc(NC(=O)c4ccc(OCCN5CCOCC5)cc4)c3)cc21 [GSK-269962A] ? Its Population Normal (%) was 87

So, Cc1nc(Cc2cccc(C(F)(F)F)c2)sc1-c1ccc(C(N)=O)nc1 [TP-024n] ? Its Population Normal (%) was 88

So, CCCn1c(=O)c2[nH]c(C34CC5CC(CC3C5)C4)nc2n(CCC)c1=O [ROLOFYLLINE] ? Its Population Normal (%) was 86

So, "COc1cc2c(NC3CCN(C(C)C)CC3)nc(N3CCC(F)(F)CC3)nc2cc1OCCCN1CCCC1" ? Its Population Normal (%) was 65

So, "CC(=O)c1cc(-c2cc(C(=O)NC3CC3)ccc2C)c2ncccn12" ? Its Population Normal (%) was 92
